# experimentalTarget: Bile acid receptor (Homo sapiens)
# runDescription: qHTS assay to identify small molecule antagonists of the farnesoid-X-receptor (FXR) signaling pathway (AID 743217)
# assayContext: HEK293T FXR-UAS-bla, beta-lactamase ratio, CDCA-stimulated, 16 h; series mostly up to 62.6 µM
Results filed as inconclusive are left out. Calls of active or inactive are those of the source. The call rests on the fitted dose curve; in most records, active means well fitted inhibition curve with a large enough effect in the signal ratio in the repeat runs (not every such curve was filed as active); inconclusive means weak or mixed curves, or effect the other way; inactive means no such curve, though single readings can be large or run the other way; the % refers to the signal ratio.
property: outcome

{"compound": "CC1=NN(c2cc(S(=O)(=O)O)ccc2Cl)C(=O)C1N=Nc1ccccc1 (configuration not stated)", "experimentalTarget": "Bile acid receptor (Homo sapiens)", "property": "outcome", "result": "inactive"}
{"compound": "CC(C)c1ccc2ncccc2c1", "experimentalTarget": "Bile acid receptor (Homo sapiens)", "property": "outcome", "result": "inactive"}
{"compound": "Nc1ccncc1N", "experimentalTarget": "Bile acid receptor (Homo sapiens)", "property": "outcome", "result": "inactive"}
{"compound": "O=Cc1cccc(Br)c1", "experimentalTarget": "Bile acid receptor (Homo sapiens)", "property": "outcome", "result": "inactive"}
{"compound": "FB(F)F", "experimentalTarget": "Bile acid receptor (Homo sapiens)", "property": "outcome", "result": "inactive"}
{"compound": "Cc1ccc(C(=O)c2ccccc2)cc1", "experimentalTarget": "Bile acid receptor (Homo sapiens)", "property": "outcome", "result": "inactive"}
{"compound": "Cc1cccc(C)c1NC(=O)CC12CCCN1CCC2", "experimentalTarget": "Bile acid receptor (Homo sapiens)", "property": "outcome", "result": "inactive"}
{"compound": "CCCc1ncc(C[n+]2ccccc2C)c(N)n1", "experimentalTarget": "Bile acid receptor (Homo sapiens)", "property": "outcome", "result": "inactive"}
{"compound": "NCCCC[C@H](N[C@@H](CCc1ccccc1)C(=O)O)C(=O)N1CCC[C@H]1C(=O)O", "experimentalTarget": "Bile acid receptor (Homo sapiens)", "property": "outcome", "result": "inactive"}
{"compound": "CCO[Si](OCC)(OCC)c1ccccc1", "experimentalTarget": "Bile acid receptor (Homo sapiens)", "property": "outcome", "result": "inactive"}
{"compound": "c1ccc(CCc2ccccc2)cc1", "experimentalTarget": "Bile acid receptor (Homo sapiens)", "property": "outcome", "result": "inactive"}
{"compound": "[K+]", "experimentalTarget": "Bile acid receptor (Homo sapiens)", "property": "outcome", "result": "inactive"}
{"compound": "Cc1coc2ccccc2c1=O", "experimentalTarget": "Bile acid receptor (Homo sapiens)", "property": "outcome", "result": "inactive"}
{"compound": "C[C@@H]1C[C@H]2[C@@H]3C[C@H](F)C4=CC(=O)C(Cl)=C[C@]4(C)[C@@]3(F)[C@@H](O)C[C@]2(C)[C@@]1(O)C(=O)CO", "experimentalTarget": "Bile acid receptor (Homo sapiens)", "property": "outcome", "result": "inactive"}
{"compound": "CCN(C=O)CC", "experimentalTarget": "Bile acid receptor (Homo sapiens)", "property": "outcome", "result": "inactive"}
{"compound": "CCCCc1nc(Cl)c(CO)n1Cc1ccc(-c2ccccc2-c2nn[nH]n2)cc1", "experimentalTarget": "Bile acid receptor (Homo sapiens)", "property": "outcome", "result": "inactive"}
{"compound": "Cc1ccnc(NS(=O)(=O)c2ccc(N)cc2)n1", "experimentalTarget": "Bile acid receptor (Homo sapiens)", "property": "outcome", "result": "inactive"}
{"compound": "CC(C)CCCO", "experimentalTarget": "Bile acid receptor (Homo sapiens)", "property": "outcome", "result": "inactive"}
{"compound": "O=C1NC(=O)C2CC=CCC12 (configuration not stated)", "experimentalTarget": "Bile acid receptor (Homo sapiens)", "property": "outcome", "result": "inactive"}
{"compound": "NC(=O)NC1N=C([O][Al])NC1=O (configuration not stated)", "experimentalTarget": "Bile acid receptor (Homo sapiens)", "property": "outcome", "result": "inactive"}
{"compound": "C[N+]12CCC(CC1)C(OC(=O)C(O)(c1ccccc1)c1ccccc1)C2 (configuration not stated)", "experimentalTarget": "Bile acid receptor (Homo sapiens)", "property": "outcome", "result": "inactive"}
{"compound": "N[C@H](C(=O)O)[C@@H](O)c1ccc(O)c(O)c1", "experimentalTarget": "Bile acid receptor (Homo sapiens)", "property": "outcome", "result": "inactive"}
{"compound": "CC(C)(C)C(=O)Oc1ccc(S(=O)(=O)Nc2ccccc2C(=O)NCC(=O)O)cc1", "experimentalTarget": "Bile acid receptor (Homo sapiens)", "property": "outcome", "result": "inactive"}
{"compound": "CC(C)(C)C(=O)c1ccccc1", "experimentalTarget": "Bile acid receptor (Homo sapiens)", "property": "outcome", "result": "inactive"}
{"compound": "CC1=CC(=O)[C@H]2C[C@@H]1C2(C)C", "experimentalTarget": "Bile acid receptor (Homo sapiens)", "property": "outcome", "result": "inactive"}
{"compound": "Cc1ccc(-c2ncc(Cl)cc2-c2ccc(S(C)(=O)=O)cc2)cn1", "experimentalTarget": "Bile acid receptor (Homo sapiens)", "property": "outcome", "result": "inactive"}
{"compound": "CCCCc1ccc2c(n1)[C@@H](c1ccc(OC)cc1C[C@H](C)C(=O)O)[C@H](C(=O)O)[C@H]2c1ccc2c(c1)OCO2", "experimentalTarget": "Bile acid receptor (Homo sapiens)", "property": "outcome", "result": "inactive"}
{"compound": "O=C(O)c1cn(C2CC2)c2cc(N3CCNCC3)c(F)cc2c1=O", "experimentalTarget": "Bile acid receptor (Homo sapiens)", "property": "outcome", "result": "inactive"}
{"compound": "C[N+]1(C)CCCC(OC(=O)C(O)(c2ccccc2)c2ccccc2)C1 (configuration not stated)", "experimentalTarget": "Bile acid receptor (Homo sapiens)", "property": "outcome", "result": "inactive"}
{"compound": "CC(CO)(CO)[N+](=O)[O-]", "experimentalTarget": "Bile acid receptor (Homo sapiens)", "property": "outcome", "result": "inactive"}
{"compound": "CN(C)CCCN(C)CCCN(C)C", "experimentalTarget": "Bile acid receptor (Homo sapiens)", "property": "outcome", "result": "inactive"}
{"compound": "C=COC(=O)C(C)(CC)CCC(C)C (configuration not stated)", "experimentalTarget": "Bile acid receptor (Homo sapiens)", "property": "outcome", "result": "inactive"}
{"compound": "CC(C)CC(C)(N)C#N (configuration not stated)", "experimentalTarget": "Bile acid receptor (Homo sapiens)", "property": "outcome", "result": "inactive"}
{"compound": "Cc1nc(C2CCCCC2)c(-c2ccc(S(N)(=O)=O)c(F)c2)o1", "experimentalTarget": "Bile acid receptor (Homo sapiens)", "property": "outcome", "result": "inactive"}
{"compound": "COC(=O)Nc1ccc(Cl)c(Cl)c1", "experimentalTarget": "Bile acid receptor (Homo sapiens)", "property": "outcome", "result": "inactive"}
{"compound": "COCCOCC(OC)OC", "experimentalTarget": "Bile acid receptor (Homo sapiens)", "property": "outcome", "result": "inactive"}
{"compound": "NS(=O)(=O)Cc1noc2ccccc12", "experimentalTarget": "Bile acid receptor (Homo sapiens)", "property": "outcome", "result": "inactive"}
{"compound": "C[C@H]1[C@H](NC(=O)/C(=N/OC(C)(C)C(=O)O)c2csc(N)n2)C(=O)N1S(=O)(=O)O (stereo in doubt)", "experimentalTarget": "Bile acid receptor (Homo sapiens)", "property": "outcome", "result": "inactive"}
{"compound": "Nc1ccn([C@@H]2O[C@H](CO)[C@@H](O)C2O)c(=O)n1 (some centres not stated)", "experimentalTarget": "Bile acid receptor (Homo sapiens)", "property": "outcome", "result": "inactive"}
{"compound": "Cc1ccc(-c2ccccc2C#N)cc1", "experimentalTarget": "Bile acid receptor (Homo sapiens)", "property": "outcome", "result": "inactive"}
{"compound": "CCOCC(C)O (configuration not stated)", "experimentalTarget": "Bile acid receptor (Homo sapiens)", "property": "outcome", "result": "inactive"}
{"compound": "CC12CCC(C(=O)C1=O)C2(C)C (configuration not stated)", "experimentalTarget": "Bile acid receptor (Homo sapiens)", "property": "outcome", "result": "inactive"}
{"compound": "CC(=O)C1CCCCC1=O (configuration not stated)", "experimentalTarget": "Bile acid receptor (Homo sapiens)", "property": "outcome", "result": "inactive"}
{"compound": "NC(=O)N[C@@H](CCC(=O)O)C(=O)O", "experimentalTarget": "Bile acid receptor (Homo sapiens)", "property": "outcome", "result": "inactive"}
{"compound": "Nc1c2c(nc3c1CCC3)CCCC2", "experimentalTarget": "Bile acid receptor (Homo sapiens)", "property": "outcome", "result": "inactive"}
{"compound": "COc1c(N2CCNC(C)C2)c(F)cc2c(=O)c(C(=O)O)cn(C3CC3)c12 (configuration not stated)", "experimentalTarget": "Bile acid receptor (Homo sapiens)", "property": "outcome", "result": "inactive"}
{"compound": "Clc1cc(Cl)c(Cl)nc1Cl", "experimentalTarget": "Bile acid receptor (Homo sapiens)", "property": "outcome", "result": "inactive"}

Source of measurements: PubChem BioAssay (Tox21)
